Target: GST-AKAP18δ: PLB-biotin interaction (Rattus norvegicus (Rat), UniProt Q6JP77)
Sequence (Q6JP77 whole entry): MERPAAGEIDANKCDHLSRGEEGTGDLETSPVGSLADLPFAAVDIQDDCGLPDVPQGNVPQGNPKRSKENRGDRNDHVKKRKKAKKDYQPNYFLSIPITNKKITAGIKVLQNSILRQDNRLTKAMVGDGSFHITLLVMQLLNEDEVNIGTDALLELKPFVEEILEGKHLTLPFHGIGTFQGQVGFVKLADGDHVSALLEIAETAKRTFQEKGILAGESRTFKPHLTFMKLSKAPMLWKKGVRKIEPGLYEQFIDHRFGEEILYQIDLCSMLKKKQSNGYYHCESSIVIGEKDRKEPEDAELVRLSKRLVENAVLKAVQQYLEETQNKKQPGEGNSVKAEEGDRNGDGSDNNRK
Experiment: AKAP18δ-PLB AlphaScreen assay
Type: binding
Conditions: average ± standard deviation (n = 3) or ± half range (n = 2); read-out: EC50 in μM (n)
property measured: EC50 (µM)
Give bare numbers, in µM.

[
  {
    "structure": "Oc1ccc(O)c(CN(Cc2ccncc2)Cc2cc(O)ccc2O)c1",
    "tested target": "GST-AKAP18δ: PLB-biotin interaction (Rattus norvegicus (Rat), UniProt Q6JP77)",
    "readout units": "µM",
    "endpoint result": 12.3
  }
]

Here is another compound to look at.
query: Find the recorded EC50 belonging to CN(C)c1ccc(CN(Cc2ccccc2)Cc2ccc(N(C)C)cc2)cc1 and report it.
result: 1.7

====

Biological target: GST-AKAP18δ: PLB-biotin interaction (Rattus norvegicus (Rat), UniProt Q6JP77)
Assay: AKAP18δ-PLB AlphaScreen assay
Format: binding
Settings: screening of compound library; read-out: EC50
// boundary case: EC50 equal to 40 µM maps to 0; strictly smaller maps to 1

Look over these answered cases.
[
  {
    "compound": "O=C(O)c1csc(CN(Cc2cccc(C(F)(F)F)c2)Cc2ccccc2F)n1",
    "group label": 0
  },
  {
    "compound": "O=C(O)c1csc(CN(CCC(c2ccccc2)c2ccccc2)Cc2ccc(F)cc2)n1",
    "group label": 1
  },
  {
    "compound": "CN(C)c1ccc(CN(Cc2ccccc2)Cc2ccc(N(C)C)cc2)cc1 [drawing 177]",
    "group label": 1
  }
]

query: Hi there! Is EC50 for CC(C)(C)c1ccc(CN(Cc2ccc(F)cc2)Cc2nc(C(=O)O)cs2)cc1 below 40 µM, do you know?
result: 0

====

Test system: metabolically active cells
Experiment: Cell viability luminescence assay
Type: cell-based
Would you kindly list Viability (100 μM) 24 hours for each of these compounds?
Answers are plain numbers.

Recorded results for 2 compounds are shown here.
[
  {
    "compound": "Oc1ccc(O)c(CN(Cc2ccncc2)Cc2cc(O)ccc2O)c1 [Example 2b]",
    "endpoint result": 0.10
  },
  {
    "compound": "CN(C)c1ccc(CN(Cc2ccccc2)Cc2ccc3c(c2)CCO3)cc1 [Example 3d]",
    "endpoint result": 0.58
  }
]

Go through the list and state Viability (100 μM) 24 hours for each entry.
1. CN(C)c1ccc(CN(Cc2ccccc2)Cc2ccc(N(C)C)cc2)cc1 [Example 2g]
2. CN(C)c1ccc(CN(Cc2ccccc2)CC(c2ccccc2)c2ccccc2)cc1 [Example 3c]
3. CC(c1ccccc1)N(Cc1ccc(N(C)C)cc1)Cc1ccc(N(C)C)cc1 (stereo not drawn) [Example 2h]
4. O=C(O)c1ccc(CN(Cc2ccccc2)Cc2ccc(F)cc2)cc1 [Example 3f]

result:
0.56
0.74
0.91
0.98

====

Target: GST-AKAP18δ: PLB-biotin interaction (Rattus norvegicus (Rat), UniProt Q6JP77)
Assay: AKAP18δ-PLB AlphaScreen assay
Type: binding
Settings: read-out: EC50
Would you kindly list pEC50 for each of these compounds?
Numbers only, as −log10 of the molar value.

Go through the list and state pEC50 for each entry.
1. CN(C)c1ccc(CN(Cc2ccccc2)CC(c2ccccc2)c2ccccc2)cc1
2. Fc1ccc(CN(Cc2ccccc2)Cc2ccc(-c3ccccc3-c3nn[nH]n3)cc2)cc1
3. CN(C)c1ccc(CN(Cc2ccccc2)Cc2ccc3c(c2)CCO3)cc1

result:
1. 6.49
2. 4.33
3. 5.55
